Molecular target: T1, Expi293-derived human TF ECD-His6 (TF-His) (human, UniProt P13726 33-251)
T1 construct: Glycosylated TF ECD-His6 made in Expi293 cells and coated on ELISA plates; also called Expi293-derived TF protein
Assay: protein ELISA, plate coated with Expi293-derived TF-His
MEASURED_METRIC: pEC50
Keep in mind that pEC50 stands for -log10 of concentration in molar terms.

Give its pEC50 value. Item: anti-TF antibody 25A (antibody, human IgG1, V domains shown, Human IgG1) VH: QVQLVQSGAEVKKPGASVKVSCKASGYTFDVYGISWVRQAPGQGLEWMGWIAPYNGNTNYAQKLQGRVTMTTDTSTSTAYMELRSLRSDDTAVYYCARDAGTYSPFGYGMDVWGQGTTVTVSS VL: DIQMTQSPSTLSASVGDRVTITCRASQSISSWLAWYQQKPGKAPKLLIYKASSLESGVPSRFSGSGSGTEFTLTISSLQPDDFATYYCQQFQSLPPFTFGGGTKVEIK
9.27
